# Test system: ragweed (common ragweed, Ambrosia artemisiifolia)
# ASSAY_INFO: Test A postemergence, ragweed
# Assay type: in vivo
# EXPERIMENTAL_CONTEXT: Postemergence, 125 g ai/ha; 0 to 100 scale (0 no effect, 100 complete control)

{"COMPOUND": "Cc1cc(C)c(N(S(=O)(=O)C(F)(F)F)S(=O)(=O)C(F)(F)F)cc1C(=O)N(C)CC1CC1 [Compound 169]", "Plant response rating, Ragweed": 60}
{"COMPOUND": "Cc1cc(C)c(C2=NOC3CCCC23)cc1NS(=O)(=O)C(F)(F)F (stereo not shown) [Compound 166]", "Plant response rating, Ragweed": 40}
{"COMPOUND": "COC1CCN(C(=O)c2cc(N(S(=O)(=O)C(F)(F)F)S(=O)(=O)C(F)(F)F)c(C)cc2C)C1 (stereo not shown) [Compound 138]", "Plant response rating, Ragweed": 30}
{"COMPOUND": "Cc1cc(C)c(C(=O)N2CCC3(CC2)OCCCO3)cc1NS(=O)(=O)C(F)(F)F [Compound 194]", "Plant response rating, Ragweed": 60}
